Tested on: SNB-19 CNS
assay.text: NCI tumour cell line growth inhibition, 48 h
Recorded TGI by entry
Enter your answer as a number in µM; do not include the unit.

1. CC(=O)[CH-]C(=O)c1ccccc1.CC(=O)[CH-]C(=O)c1ccccc1.CCCCCCCCCCCCCCCCCC(=O)[O-].CCCCCCCCCCCCCCCCCC(=O)[O-].[Ti+4]; 33.6

Need TGI of O=C1/C(=C/c2ccc(F)cc2)CCOc2ccc([N+](=O)[O-])cc21 , thanks.
16.2

---

System: SF-539 CNS
assay.text: NCI tumour cell line growth inhibition, 48 h; in the data active means GI50 below about 0.43 µM; inactive means the rest
Parameter call: string, one of yes (active), no (inactive)

Known results for compounds:
1. Nc1n[nH]c2ccc([C@@H]3Nc4ccc5[nH]ncc5c4[C@H]4[C@H]5CCC(C5)[C@H]43)cc12; yes
2. N#Cc1c(-c2cccs2)c2c(=S)[nH]c(=S)[nH]c2[nH]c1=S; no
3. CC(C)(C)c1cc(O)c(O)c(C(C)(C)C)c1; no
4. O=C(c1ccc2ccccc2c1)c1c(C(F)(F)F)n([O-])c2cc(Cl)c(Cl)cc2[n+]1=O; no
5. CN1CCN(CC#Cc2cccc(C(=O)c3cnn(-c4ccc(F)cc4)c3N)c2)CC1; no

For Cc1nn(-c2ccc(F)cc2)c2ncnc(Nc3ccc(NC(=O)Nc4ccc(Cl)c(C(F)(F)F)c4)cc3)c12 , which call appears in the assay record?
no

Record request — test call for COC1(C(=O)N2Cc3nc(Cl)nc(N[C@H](C)c4cc(N)cc(C(F)(F)F)c4)c3C2)CCOCC1
no

Which outcome was assigned to Cc1ccn2c3c(c(C(=O)O)c2c1)C(=O)c1ccccc1C3=O in this test?
no

Entry COc1cc2ncn(-c3cc(OCc4ccccc4Cl)c(C(N)=O)s3)c2cc1OC : call = ?
yes
